We begin with a simple list: items and their reported MIC.
System: Brucella abortus ATCC 23448
assay_info: microbe, parasite or virus in culture
Format: cell-based
condition_parameters: ATCC23448
Structures can show the parent of a compound that is named as a salt.
Give the number; µg/mL is assumed, so skip it.

Some solved entries appear below for comparison.
[[record]]
compound = "Cc1c(-c2ccc(N)c(F)c2)c(F)cn2c(=O)c(C(=O)O)cc(C3CC3)c12 [Example 1 K salt]"
assay_readout = "MIC"
unit_text = "µg/mL"
numeric_value = 0.031

[[record]]
compound = "Cc1c(-c2ccc(F)c(N)c2)ccn2c(=O)c(C(=O)O)cc(C3CC3)c12 [Example 8 K salt]"
assay_readout = "MIC"
unit_text = "µg/mL"
numeric_value = 0.063

[[record]]
compound = "Cc1c(-c2cccc(N)c2)ccn2c(=O)c(C(=O)O)cc(C3CC3)c12 [Example 3 K salt]"
assay_readout = "MIC"
unit_text = "µg/mL"
numeric_value = 0.125

[[record]]
compound = "Cc1c(-c2ccncc2)ccn2c(=O)c(C(=O)O)cc(C3CC3)c12 [Example 16 K salt]"
assay_readout = "MIC"
unit_text = "µg/mL"
numeric_value = 0.063

[[record]]
compound = "Cc1c(-c2ccc(CN)cc2)ccn2c(=O)c(C(=O)O)cc(C3CC3)c12 [Example 31 K salt]"
assay_readout = "MIC"
unit_text = "µg/mL"
numeric_value = 0.25

[[record]]
compound = "Cc1c(-c2ccc(O)cc2)ccn2c(=O)c(C(=O)O)cc(C3CC3)c12 [Example 46 K salt]"
assay_readout = "MIC"
unit_text = "µg/mL"
numeric_value = 0.031

[[record]]
compound = "Cc1c(-c2ccnc(F)c2)ccn2c(=O)c(C(=O)O)cc(C3CC3)c12 [Example 20 K salt]"
assay_readout = "MIC"
unit_text = "µg/mL"
numeric_value = 0.063

[[record]]
compound = "Cc1c(-c2cc(N)cc(F)c2)ccn2c(=O)c(C(=O)O)cc(C3CC3)c12 [Example 9 K salt]"
assay_readout = "MIC"
unit_text = "µg/mL"
numeric_value = 0.063

[[record]]
compound = "Cc1c(-c2ccc(CO)cc2)ccn2c(=O)c(C(=O)O)cc(C3CC3)c12 [Example 48 K salt]"
assay_readout = "MIC"
unit_text = "µg/mL"
numeric_value = 0.031

[[record]]
compound = "Cc1c(-c2ccc(N)nc2)ccn2c(=O)c(C(=O)O)cc(C3CC3)c12 [Example 21 K salt]"
assay_readout = "MIC"
unit_text = "µg/mL"
numeric_value = 0.063


Query: Which measured MIC value corresponds to Cc1c(-c2ccc(Cl)cc2)ccn2c(=O)c(C(=O)O)cc(C3CC3)c12 [Example 45 K salt] ?
Reply: 0.031

Query: Which measured MIC value corresponds to Cc1c(-c2ccc3[nH]ncc3c2)ccn2c(=O)c(C(=O)O)cc(C3CC3)c12 [Example 23 K salt] ?
Reply: 0.016

* * *

Tested on: P. aeruginosa ATCC 27853
assay_info: MIC, CLSI broth microdilution (Table 2)
Assay type: cell-based
condition_parameters: Pseudomonas aeruginosa, ATCC27853; Gram negative; MHB, 37° C., 16-20 hours; read-out: MIC P. aeruginosa ATCC 27853
Where a name gives a salt, the structure may show the parent alone.
We begin with a simple list: items and their reported MIC.
Give the number; µg/mL is assumed, so skip it.

Some solved entries appear below for comparison.
[[record]]
compound = "CC(=O)Nc1ccc(-c2ccn3c(=O)c(C(=O)O)cc(C4CC4)c3c2C)cc1 [Example 13 K salt]"
test_target = "P. aeruginosa ATCC 27853"
numeric_value = 8

[[record]]
compound = "COc1ccc(-c2ccn3c(=O)c(C(=O)O)cc(C4CC4)c3c2C)cc1 [Example 47 K salt]"
test_target = "P. aeruginosa ATCC 27853"
numeric_value = 4

[[record]]
compound = "Cc1c(-c2cccc(N)c2)c(F)cn2c(=O)c(C(=O)O)cc(C3CC3)c12 [Example 4 K salt]"
test_target = "P. aeruginosa ATCC 27853"
numeric_value = 8

[[record]]
compound = "Cc1c(-c2cc(N)cc(F)c2)ccn2c(=O)c(C(=O)O)cc(C3CC3)c12 [Example 9 K salt]"
test_target = "P. aeruginosa ATCC 27853"
numeric_value = 2

[[record]]
compound = "Cc1c(-c2ccc(Cl)cc2)ccn2c(=O)c(C(=O)O)cc(C3CC3)c12 [Example 45 K salt]"
test_target = "P. aeruginosa ATCC 27853"
numeric_value = 2

[[record]]
compound = "Cc1c(N2CCNCC2)ccn2c(=O)c(C(=O)O)cc(C3CC3)c12 [Example 34 K salt]"
test_target = "P. aeruginosa ATCC 27853"
numeric_value = 1

[[record]]
compound = "Cc1c(N2CC[C@H](N)C2)c(F)cn2c(=O)c(C(=O)O)cc(C3CC3)c12 [Example 26 K salt]"
test_target = "P. aeruginosa ATCC 27853"
numeric_value = 0.125

[[record]]
compound = "COc1cc(-c2ccn3c(=O)c(C(=O)O)cc(C4CC4)c3c2C)ccc1N [Example 12 K salt]"
test_target = "P. aeruginosa ATCC 27853"
numeric_value = 8


Query: Which measured MIC value corresponds to Cc1c(-c2cc(Cl)c(N)c(Cl)c2)ccn2c(=O)c(C(=O)O)cc(C3CC3)c12 [Example 29 K salt] ?
Reply: 4

Query: Which measured MIC value corresponds to Cc1c(-c2cc[nH]c2)ccn2c(=O)c(C(=O)O)cc(C3CC3)c12 [Example 43 K salt] ?
Reply: 4

Query: Which measured MIC value corresponds to Cc1c(N2CC[C@H](N)C2)ccn2c(=O)c(C(=O)O)cc(C3CC3)c12 [Example 27 K salt] ?
Reply: 2
